Biological target: ARHGEF12, Q9NZN5-2
Sequence (Q9NZN5 other isoform, or with tags, fused parts or gaps): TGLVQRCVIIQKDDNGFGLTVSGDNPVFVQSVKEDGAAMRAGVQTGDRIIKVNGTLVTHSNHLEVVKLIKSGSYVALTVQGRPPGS
Assay: holdup assay
Parameters: key: below the threshold = too weak to quantify, mostly under pKd 3.1 to 4
Settings: plain residues with an end cap or a label only (N-terminal biotin on a linker: ttds)
measuredAttribute: pKd
Numbers only.

A selection of reference data follows.
binder: SSIDLWETAL [SLC15A5, A6NIM6]
pKd: 5.22

binder: FVETQHQTQV [FAT3, Q8TDW7]
pKd: 3.88

binder: KQVVPFSSSV [GDA, Q9Y2T3]
pKd: 3.98

binder: SRSRRRETAL [HPV33-E6, P06427]
pKd: 4.78

Below are 2 binders. Give each one its pKd.
1. KLVIKTETTV [RASSF6, Q6ZTQ3]
2. GARVSKETPL [MAPK12, P53778]

(A)
3.82
4.34
